Give measured growth at 10 µM for each item. Keep answers brief.
# System: MOLT-4
# assayExplanation: Growth inhibition of human MOLT4 cells assessed as growth percentage at 10 uM incubated for 48 hrs by sulforhodamine B assay relative to control
# Assay type: functional
# conditionDetails: MOLT-4, 48 h, read-out: Activity
Write it as a number; the unit % goes unstated.

Fetch value of growth at 10 µM on MOLT-4 for CC1(C)CC(=O)C2=C(C1)NC(=O)NC2c1ccc2c(c1)OCO2 (racemic) .
95.9

Fetch value of growth at 10 µM on MOLT-4 for O=C1NC2=C(C(=O)c3ccccc32)C(c2ccc3c(c2)OCO3)N1 (racemic) .
104

Fetch value of growth at 10 µM on MOLT-4 for CC(=O)N1C(=S)NC(C)=C(C(=O)OC(C)C)C1c1ccc2c(c1)OCO2 (racemic) .
95.2

Fetch value of growth at 10 µM on MOLT-4 for CC(=O)N1C(=S)NC(C)=C(C(=O)OCC(C)C)C1c1ccc2c(c1)OCO2 (racemic) .
95.1

Fetch value of growth at 10 µM on MOLT-4 for CC1=C(C(=O)OCC(C)C)C(c2ccc3c(c2)OCO3)NC(=O)N1 (racemic) .
109

Fetch value of growth at 10 µM on MOLT-4 for CC1=C(C(=O)c2ccccc2)C(c2ccc3c(c2)OCO3)NC(=S)N1 (racemic) .
36.6

Fetch value of growth at 10 µM on MOLT-4 for CC1=C(C(=O)OCc2ccccc2)C(c2ccc3c(c2)OCO3)NC(=S)N1 (racemic) .
78.2

Fetch value of growth at 10 µM on MOLT-4 for COCCOC(=O)C1=C(C)NC(=O)NC1c1ccc2c(c1)OCO2 (racemic) .
101

Fetch value of growth at 10 µM on MOLT-4 for CC(=O)C1=C(C)NC(=O)NC1c1ccc2c(c1)OCO2 (racemic) .
103

Fetch value of growth at 10 µM on MOLT-4 for CC1=C(C(=O)c2ccccc2)C(c2ccc3c(c2)OCO3)NC(=O)N1 (racemic) .
103

Fetch value of growth at 10 µM on MOLT-4 for CC(=O)C1=C(C)Nc2nc3ccccc3n2C1c1ccc2c(c1)OCO2 (racemic) .
102

Fetch value of growth at 10 µM on MOLT-4 for CC1=C(C(=O)OC(C)C)C(c2ccc3c(c2)OCO3)NC(=S)N1 (racemic) .
110

Fetch value of growth at 10 µM on MOLT-4 for CC(=O)C1=C(C)NC(=S)NC1c1ccc2c(c1)OCO2 (racemic) .
98.8

Fetch value of growth at 10 µM on MOLT-4 for CC(=O)N1C(=S)NC(C)=C(C(=O)OCc2ccccc2)C1c1ccc2c(c1)OCO2 (racemic) .
58.7

Fetch value of growth at 10 µM on MOLT-4 for O=C1C2=C(NC(=S)NC2c2ccc3c(c2)OCO3)c2ccccc21 (racemic) .
104

Fetch value of growth at 10 µM on MOLT-4 for CC1=C(C(=O)OC(C)C)C(c2ccc3c(c2)OCO3)NC(=O)N1 (racemic) .
108

Fetch value of growth at 10 µM on MOLT-4 for CC1=C(C(=O)OCC(C)C)C(c2ccc3c(c2)OCO3)NC(=S)N1 (racemic) .
89.1

Fetch value of growth at 10 µM on MOLT-4 for COCCOC(=O)C1=C(C)NC(=S)N(C(C)=O)C1c1ccc2c(c1)OCO2 (racemic) .
103

Fetch value of growth at 10 µM on MOLT-4 for CC1=C(C(=O)OCc2ccccc2)C(c2ccc3c(c2)OCO3)NC(=O)N1 (racemic) .
104

Fetch value of growth at 10 µM on MOLT-4 for COCCOC(=O)C1=C(C)NC(=S)NC1c1ccc2c(c1)OCO2 (racemic) .
96.9
